tested on: TNK2; settings: concentration: 1 μM, replicates: in singlicate; n = 1;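 note: KINOMEscan kinase panel screen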
Measured endpoint: %Inh (%)
The reply should contain only the number, in %.

Below, 3 compounds whose answers are already recorded.
1) NCC(NC(=O)c1cc(-c2cn[nH]c2)c(-c2ccnc3[nH]ccc23)s1)c1ccccc1.O=C(O)C(F)(F)F.O=C(O)C(F)(F)F (stereo not drawn) [GSK1325775]	0
2) O=C(NOCC1CC1)c1ccc(F)c(F)c1Nc1ccc(I)cc1Cl	0
3) Cn1ccc2ncnc(Oc3ccc(NC(=O)Nc4ccncc4)c(Cl)c3)c21	0

Looking up NS(=O)(=O)c1cccc(-c2ccc3nccc(-c4cccc(S(N)(=O)=O)c4)c3c2)c1 [GW867253] , I found its %Inh recorded as 0

Looking up Cc1ccc(NC(=O)c2ccnc(N3CCN(C)CC3)c2)cc1-c1ccc(C(=O)NCC2CC2)cc1 [GW775604] , I found its %Inh recorded as 0

Looking up NS(=O)(=O)CCc1cccc(Nc2nccc(-c3c(-c4cccc(NC(=O)c5c(F)cccc5F)c4)nn4ccccc34)n2)c1 [GSK336735] , I found its %Inh recorded as 89

Looking up O=c1cc(N2CCOCC2)nc2n(Cc3cccc(C(F)(F)F)c3)ccn12 [GSK2297543] , I found its %Inh recorded as 11

Looking up CC(C)(C)n1cnc2c(N)ncnc21 [SKF-97359] , I found its %Inh recorded as 40

Looking up Cc1cn2c(=O)cc(N3CCOCC3)nc2n1Cc1cccc(Cl)c1Cl [GSK2334006] , I found its %Inh recorded as 12
